Source of measurements: patent US20260209219A1

biological target: hM4 receptors (Homo sapiens, UniProt P08173); test: Human M4 PAM pERK assay; details: CHO cells expressing hM4; with EC20 of acetylcholine (10 nM final)
measurement-type: EC50

Reference set, count: 6
>>> measured_value("Cc1c2c(n(C)c(=O)c1Cl)CN(C(=O)C[C@@H]1C[C@H]1c1ccc(C(F)(F)F)cc1)C2 (relative stereo) [Compound I-31]")
"0.1 to 0.5 µM"
>>> measured_value("Cc1c2c(n(C)c(=O)c1F)CN(C(=O)CC1CC1c1cc(F)cc(F)c1)C2 (single isomer, unassigned) [Compound I-28]")
"< 0.1 µM"
>>> measured_value("COCCc1ccc(C2CC2CC(=O)N2Cc3c(C)cc(=O)n(C)c3C2)cc1 (centres unmarked) [Compound I-11]")
"0.1 to 0.5 µM"
>>> measured_value("Cc1c2c(n(C)c(=O)c1C)CN(C(=O)C[C@@H]1C[C@H]1c1ccc(C(F)(F)F)cc1)C2 (relative stereo) [Compound I-18]")
"0.1 to 0.5 µM"
>>> measured_value("Cc1cc(=O)n(C)c2c1CN(C(=O)CC1CC1c1ccc(C(F)(F)F)cc1)C2 (single isomer, unassigned) [Compound I-6]")
"> 2 µM"
>>> measured_value("Cc1cc(=O)n(C)c2c1CN(C(=O)CC1CC1c1ccc(C3COC3)cc1)C2 (single isomer, unassigned) [Compound I-17]")
"< 0.1 µM"

Enter reported EC50 observed with hM4 receptors (Homo sapiens, UniProt P08173) for Cc1cc(=O)n(C)c2c1CN(C(=O)CC1CC1c1ccc(C3COC3)cc1)C2 (centres unmarked) [Compound I-15] 0.1 to 0.5 µM

Lab note: need EC50 for Cc1cc(=O)n(C)c2c1CN(C(=O)CC1CC1c1ccc(C(F)(F)F)nc1)C2 (centres unmarked) [Compound I-3] on hM4 receptors (Homo sapiens, UniProt P08173), anyone have it? 0.5 to 2 µM

Request: EC50, test system hM4 receptors (Homo sapiens, UniProt P08173), entry Cc1c2c(n(C)c(=O)c1Cl)CN(C(=O)CC1CC1c1cc(F)cc(F)c1)C2 (centres unmarked) [Compound I-34] < 0.1 µM

Param readout = EC50; param system = hM4 receptors (Homo sapiens, UniProt P08173); param query = Cc1c2c(n(C)c(=O)c1F)CN(C(=O)CC1CC1c1ccc(C(F)(F)F)cc1)C2 (centres unmarked) [Compound I-26] ; response: value < 0.1 µM

Recorded EC50 for Cc1cc(=O)n(C)c2c1CN(C(=O)CC1CC1c1ccc(S(=O)(=O)C(F)(F)F)cc1)C2 (single isomer, unassigned) [Compound I-9] with hM4 receptors (Homo sapiens, UniProt P08173), please? 0.1 to 0.5 µM

====

Target: human M4 receptor (Homo sapiens)
Sequence (P08173 1-479): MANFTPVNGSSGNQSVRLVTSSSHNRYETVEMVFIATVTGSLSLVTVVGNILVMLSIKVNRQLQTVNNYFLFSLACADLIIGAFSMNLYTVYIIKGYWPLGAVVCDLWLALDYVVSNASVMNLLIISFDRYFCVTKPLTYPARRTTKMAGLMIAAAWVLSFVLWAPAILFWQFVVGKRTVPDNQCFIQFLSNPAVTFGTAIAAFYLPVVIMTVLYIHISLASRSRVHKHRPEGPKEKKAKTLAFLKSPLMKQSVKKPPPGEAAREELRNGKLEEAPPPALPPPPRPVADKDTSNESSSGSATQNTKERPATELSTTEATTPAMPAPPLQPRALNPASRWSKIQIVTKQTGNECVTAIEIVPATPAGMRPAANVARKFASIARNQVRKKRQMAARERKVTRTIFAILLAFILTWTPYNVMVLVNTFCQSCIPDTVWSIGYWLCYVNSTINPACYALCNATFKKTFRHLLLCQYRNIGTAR
Experiment: M4 GTPγS PAM assay
Settings: membranes of CHO-K1 cells stably expressing human M4; EC20 acetylcholine 40 nM
Protocol: The M4 GTPγS PAM method was used. Membranes were prepared for GTPgS binding assays from CHO-K1 cells stably expressing human M4 receptor. Briefly, cells were grown in 5-layer cell culture flasks. Cells were washed with 50 mL of PBS and then dissociated with 0.05% trypsin. Dissociated cells were then collected by centrifugation at 650×g for 8 minutes at 4° C. […] Membrane protein concentration is determined by BCA protein assay (Promega, Madison, WI) according to Promega guidelines. […]
measurement-type: EC50

Recorded results for 5 compounds are shown here.
>>> measured_value("Cc1cc(=O)n(C)c2c1CN(C(=O)CC1CC1c1ccc(C(F)(F)F)nc1)C2 (stereo not shown) [Compound I-3]")
"500 to 2000 nM"
>>> measured_value("Cc1c2c(n(C)c(=O)c1C)CN(C(=O)CC1CC1c1cc(F)cc(F)c1)C2 (stereo not shown) [Compound I-21]")
"< 100 nM"
>>> measured_value("Cc1cc(=O)n(C)c2c1CN(C(=O)CC1CC1c1cccc(C3COC3)c1)C2 (single isomer, unassigned) [Compound I-13]")
"> 2000 nM"
>>> measured_value("Cc1c2c(n(C)c(=O)c1F)CN(C(=O)CC1CC1c1ccc(C(F)(F)F)cc1)C2 (stereo not shown) [Compound I-26]")
"< 100 nM"
>>> measured_value("Cc1c2c(n(C)c(=O)c1C)CN(C(=O)CC1CC1c1cc(F)cc(F)c1)C2 (single isomer, unassigned) [Compound I-22]")
"500 to 2000 nM"

Which EC50 is reported for this compound? Cc1c2c(n(C)c(=O)c1Cl)CN(C(=O)CC1CC1c1cc(F)cc(F)c1)C2 (single isomer, unassigned) [Compound I-36] < 100 nM

May I ask what EC50 has been recorded for Cc1cc(=O)n(C)c2c1CN(C(=O)CC1CC1c1cccc(C3COC3)c1)C2 (stereo not shown) [Compound I-12] ? > 2000 nM
